For each record, write down the corresponding CC50 at 24 h.
- assay.details: in vitro
- measurement.setup: human
Starred links: 1 amine or outer side, 2 acyl side, 3 side chain; linkers in the order of their positions; H or OH if unused. Positions of bridges follow the written chain, without caps; N, C: chain ends. Non-standard residues stand in square brackets, D forms with d. Residues, ends and D or L forms follow the SMILES beside them. *: point of attachment. Cholyl = C[C@H](CCC(=O)*)[C@H]1CC[C@H]2[C@@H]3[C@H](O)C[C@@H]4C[C@H](O)CC[C@]4(C)[C@H]3C[C@H](O)[C@]12C; Isonicotinoyl(2-Ph) = O=C(c1ccnc(-c2ccccc2)c1)*; Decanoyl(3R-OH) = CCCCCCC[C@@H](O)CC(=O)*; Phe(4-NH2) = Nc1ccc(C[C@H](N)C(=O)O)cc1; Butanoyl(4-OPh) = O=C(CCCOc1ccccc1)*; azaDab = NCCN(N[*:1])C(=O)[*:2]; X1 = CCCCCCCN1CCC(C(=O)*)CC1; X7 = CCC(C)CCCCC(O)CC(=O)*; dDab = NCC[C@@H](N)C(=O)O; dDap = NC[C@@H](N)C(=O)O; Dab = NCC[C@H](N)C(=O)O; Dap = NC[C@H](N)C(=O)O

Data request: I would be grateful if you could share the reported CC50 at 24 h for CC(C)C[C@@H]1NC(=O)[C@H](CCN)NC(=O)[C@H](CCN)NC(=O)[C@H](Cc2ccccc2)NC(=O)[C@@H](CC(C)C)NC(=O)[C@H](CCN)NC(=O)[C@@H](NC(=O)[C@@H](CCN)NC(=O)c2ccnc(-c3ccccc3)c2)CCNC1=O [compound 6517] ({Isonicotinoyl(2-Ph)}-[dDab][Dab][Dab][dL]F[Dab][Dab]L; lactam 2-C) .
Data returned: > 300 µM

Data request: I would be grateful if you could share the reported CC50 at 24 h for CC(C)C[C@@H]1NC(=O)[C@H](CCN)NC(=O)[C@H](CCN)NC(=O)[C@H](Cc2ccccc2)NC(=O)[C@@H](CC(C)C)NC(=O)[C@H](CCN)NC(=O)[C@@H](NC(=O)[C@@H](CCN)NC(=O)CCCOc2ccccc2)CCNC1=O [compound 6521] ({Butanoyl(4-OPh)}-[dDab][Dab][Dab][dL]F[Dab][Dab]L; lactam 2-C) .
Data returned: > 300 µM

Data request: I would be grateful if you could share the reported CC50 at 24 h for CCC(C)CCCCC(O)CC(=O)N[C@@H](CCN)C(=O)N[C@H]1CCNC(=O)[C@H](CC(C)C)NC(=O)[C@H](CCN)NC(=O)[C@H](CCN)NC(=O)[C@H](CC(C)C)NC(=O)[C@@H](Cc2ccccc2)NC(=O)[C@H](CCN)NC1=O (stereo partly drawn) [compound 5567] (X7-[Dab][Dab][Dab][dF]L[Dab][Dab]L; lactam 2-C) .
Data returned: 150 µM

Data request: I would be grateful if you could share the reported CC50 at 24 h for CCCCCCC[C@@H](O)CC(=O)N[C@@H](CCN)C(=O)N[C@@H]1CCNC(=O)[C@H](CC(C)C)NC(=O)[C@H](CCN)NC(=O)[C@H](CCN)NC(=O)[C@H](CC(C)C)NC(=O)[C@@H](Cc2ccccc2)NC(=O)[C@H](CCN)NC1=O [compound 6658] ({Decanoyl(3R-OH)}-[Dab][dDab][Dab][dF]L[Dab][Dab]L; lactam 2-C) .
Data returned: > 300 µM

Data request: I would be grateful if you could share the reported CC50 at 24 h for CCCCCCC[C@@H](O)CC(=O)N[C@H](CCN)C(=O)N[C@H]1CCNC(=O)[C@H](CC(C)C)NC(=O)[C@H](CCN)NC(=O)[C@H](CCN)NC(=O)[C@H](CC(C)C)NC(=O)[C@@H](Cc2ccccc2)NC(=O)[C@H](Cc2ccc(N)cc2)NC1=O [compound 8635] ({Decanoyl(3R-OH)}-[dDab][Dab][Phe(4-NH2)][dF]L[Dab][Dab]L; lactam 2-C) .
Data returned: > 300 µM

Data request: I would be grateful if you could share the reported CC50 at 24 h for CC(C)C[C@@H]1NC(=O)[C@H](CCN)NC(=O)[C@H](CCN)NC(=O)[C@H](CC(C)C)NC(=O)[C@@H](Cc2ccccc2)NC(=O)[C@H](CCN)NC(=O)[C@@H](NC(=O)[C@@H](CCN)NC(=O)CC[C@@H](C)[C@H]2CC[C@H]3[C@@H]4[C@H](O)C[C@@H]5C[C@H](O)CC[C@]5(C)[C@H]4C[C@H](O)[C@]23C)CCNC1=O [compound 5016] (Cholyl-[dDab][Dab][Dab][dF]L[Dab][Dab]L; lactam 2-C) .
Data returned: 46 µM

Data request: I would be grateful if you could share the reported CC50 at 24 h for CCCCCCCN1CCC(C(=O)N[C@H](CCN)C(=O)N[C@H]2CCNC(=O)[C@H](CC(C)C)NC(=O)[C@H](CCN)NC(=O)[C@H](CCN)NC(=O)[C@H](Cc3ccccc3)NC(=O)[C@@H](CC(C)C)NC(=O)[C@H](CCN)NC2=O)CC1 [compound 6516] (X1-[dDab][Dab][Dab][dL]F[Dab][Dab]L; lactam 2-C) .
Data returned: > 300 µM

Data request: I would be grateful if you could share the reported CC50 at 24 h for CCCCCCC[C@@H](O)CC(=O)N[C@H](CCN)C(=O)N[C@H]1CCNC(=O)[C@H](CC(C)C)NC(=O)[C@H](CCN)NC(=O)[C@H](CCN)NC(=O)[C@H](CC(C)C)NC(=O)[C@@H](Cc2ccccc2)NC(=O)N(CCN)NC1=O [compound 8636] ({Decanoyl(3R-OH)}-[dDab][Dab][azaDab][dF]L[Dab][Dab]L; lactam 2-C) .
Data returned: > 300 µM

Data request: I would be grateful if you could share the reported CC50 at 24 h for CCCCCCC[C@@H](O)CC(=O)N[C@H](CCN)C(=O)N[C@H]1CCNC(=O)[C@H](CC(C)C)NC(=O)[C@H](CCN)NC(=O)[C@H](CCN)NC(=O)[C@H](CC(C)C)NC(=O)[C@@H](Cc2ccc(O)cc2)NC(=O)[C@H](CCN)NC1=O [compound 5008] ({Decanoyl(3R-OH)}-[dDab][Dab][Dab][dY]L[Dab][Dab]L; lactam 2-C) .
Data returned: > 300 µM

Data request: I would be grateful if you could share the reported CC50 at 24 h for CCCCCCC[C@@H](O)CC(=O)N[C@H](CN)C(=O)N[C@H]1CCNC(=O)[C@H](CC(C)C)NC(=O)[C@H](CCN)NC(=O)[C@H](CCN)NC(=O)[C@H](Cc2ccccc2)NC(=O)[C@@H](CC(C)C)NC(=O)[C@H](CCN)NC1=O [compound 6427] ({Decanoyl(3R-OH)}-[dDap][Dab][Dab][dL]F[Dab][Dab]L; lactam 2-C) .
Data returned: > 300 µM

Data request: I would be grateful if you could share the reported CC50 at 24 h for CCCCCCC[C@@H](O)CC(=O)N[C@H](CCN)C(=O)N[C@H]1CNC(=O)[C@H](CC(C)C)NC(=O)[C@H](CCN)NC(=O)[C@H](CCN)NC(=O)[C@H](CC(C)C)NC(=O)[C@@H](CC(C)C)NC(=O)[C@H](CCN)NC1=O [compound 633] ({Decanoyl(3R-OH)}-[dDab][Dap][Dab][dL]L[Dab][Dab]L; lactam 2-C) .
Data returned: > 300 µM

Data request: I would be grateful if you could share the reported CC50 at 24 h for CCCCCCCN1CCC(C(=O)N[C@H](CCN)C(=O)N[C@H]2CCNC(=O)[C@H](CC(C)C)NC(=O)[C@H](CCN)NC(=O)[C@H](CCN)NC(=O)[C@H](CC(C)C)NC(=O)[C@@H](Cc3ccccc3)NC(=O)[C@H](CCN)NC2=O)CC1 [compound 6524] (X1-[dDab][Dab][Dab][dF]L[Dab][Dab]L; lactam 2-C) .
Data returned: > 300 µM
